- test: protein stability index of a GFP-peptide fusion (GPS, HEK-293T) (PSI 1-6); higher = more stable;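 also: 24-mer peptide tiles fused after GFP, lentivirally expressed, FACS-sorted into six equal bins by GFP/DsRed ratio, decoded by Illumina sequencing, PSI is the read-weighted mean bin number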
- test_settings: treatment: MLN4924 1 uM, 8 h; c terminus: a fixed tail appended
Mark rule not met for protein stability index values under 3, and rule met for everything at or above.

sequence_record	category
PAASNSSDLFDLMGSSQATMTSSQ [CLINT1]	rule met
LTCDSAQKCHSIGETDEVTKTEDR [ZSCAN9]	rule met
RFFACPSKATFSRNIMNLIDIVAI [KCNA3]	rule not met
MVILISIVIFCLETLPELKDDKDF [KCNA1]	rule not met
RSLNVFVKDDDRLTFHRHPVAQST [SPSB4]	rule met
HMFTPKLDKMLDPQVWREAATQVF [SLC6A17]	rule not met
VYLHGDDHQDSDEFCRNTLCAPEV [FAF2]	rule met
LEEEEEEEDLVLTCEDDEDEELGG [ZBTB22]	rule met
LYSRTGDIVEFVCKSGYHPTKSHS [CFHR2]	rule not met
TARRSKRERREEDRAPAEQVPRSP [PWWP2B]	rule met
SKSTQFEYAWCLVRSKYNDDIRKG [FIS1]	rule not met
EQRTIQAQKESLQNQHHSASLQAS [APBB1IP]	rule met
IDICHDHFGWYLGWGDCVWLPYLY [DHCR7]	rule met
LQEPGVFSPTPPQQFQPAGTDQVC [FCHSD1]	rule met
ESFRDLQLRLLQAPLQADLTEQVW [SCARA5]	rule met
RPPGPAGTEQSRGLGHGSTSRGGP [CPOX]	rule met
FTEASMMMSLTKLADKELVHMISW [ESR2]	rule met
EAFAASAVGSGERRGGGPVFPAPV [ZBTB22]	rule met
TSTGSAASSGSNSSASSEQGLLGR [SPRY1]	rule met
VSTFLSGVMLTWPDGLMYQKFRNQ [TMEM120A]	rule not met
NARAQQRAAAQQRRSFLNAHHRSG [GNAS]	rule met
MHANVEDRGIKGDITPLMAAANGG [ANKRD17]	rule met
ESPIPEDKDRRFVFSYFLATDMIS [EFHC1]	rule not met
APGEEEEEEEEATNTHPPASLPSQ [CHGA]	rule met
RIPYTKSQTEAHYSCQSKEILRYM [P2RY14]	rule not met
FQRRNMIEPRERAKFKRKYKVKLV [NOP53]	rule met

###

# protein stability index per record follows
- test: protein stability index of a GFP-peptide fusion (GPS, HEK-293T) (PSI 1-6); higher = more stable
- test_settings: treatment: DMSO; c terminus: a fixed tail appended
measured_parameter: protein stability index

sequence_record	experimental_value
YADFGPLNLAMVYRYCCKLNKKLK [CDC14A]	2.9
RRLPLAFRDATSAPLRKLSVDLIK [DYRK1B]	2.46
LEDTCKTIEECCRKQKQELCEKFD [TRIM55]	4.86
GGGGGGGGGGGGGGTSSNNSEEEE [ANKRD17]	5.42
VSTFLSGVMLTWPDGLMYQKFRNQ [TMEM120A]	2.85
CPHTPEFSVTGGTEEKSSLLMSCL [RPAIN]	3.38
STVQILTEGFPPGGGNARATGMFL [ZFYVE21]	2.16
LFSLKESPEKFQIEANFPRRVLPC [FAF2]	2.61
ITKAFHVRKANRIKECLSKGTFSD [RHOBTB1]	2.7
AYLELEITLSQEQIQKYTDCLQFY [RTN1]	2.57
CFQDFKEEKPQENKTWREQYLRLP [ELOA2]	3.15
LVLRRQLKNKCCPPPCKFGEGKLS [C22orf31]	2.21
YLPQCSYFKCVQKDIQPYMRRMVA [CCND2]	2.11
GRVHLVKEKTAKHFFALKVMSIPD [PRKX]	1.87
HGASAPSVSREARQTVPPLTVRLH [PWWP2B]	3.76
LLGLKAFLGLFFIVRFLESNWFVW [FADS1]	2.9
FTDYGLAALAVNTSILSRLPPEAL [RNF208]	2.29
TLKKFKGDLAYRRQEYQKALQEYS [C8orf76]	2.82
HVPELEMLGRLGYLNHVRAASPQD [MNAT1]	3.44
EMDMVVFRPEMKKHSWCLKRKNPP [N4BP2L1]	3.25
SRLVAGEYLSFFDFSGLTLDGALR [PSD2]	1.93
MSRQFTCKSGAAAKGGFSGCSAVL [KRT71]	2.59
SSSPPGTPSPADAKAPPTACYAGA [CEBPB]	5.14
GSGGTRGPPSRGGHMDDGGYSMNF [RBMX]	3.96
PQPDPVFLEALSSRYLGDSGLDDF [SERTAD3]	4.19
KFPPEEELQREWLGNREALIQFLE [CPN1]	3.69
ASENHGCEHECVNADGSYLCQCHE [MATN2]	5.46
